test system: Antibody to Immunogen VI; type: binding, sheep; conditions: Cross-reactants at 100 ng/ml; 1000ng/ml; single level of cross reactants
Measured %B/B0 by item
reportedMetric: %B/B0 (%)

>  <compound>
CCCCn1cc(C(=O)c2cccc3ccccc23)c2cccc(O)c21

>  <reportedMetric>
%B/B0

>  <readingUnit>
%

>  <measurement>
81.62

$$$$
>  <compound>
CCCCCn1c(C)c(C(=O)c2ccc(OC)c3ccccc23)c2ccccc21 [JWH-098]

>  <reportedMetric>
%B/B0

>  <readingUnit>
%

>  <measurement>
78.96

$$$$
>  <compound>
COc1cccc(CC(=O)c2cn(CCC3CCCCC3)c3ccccc23)c1 [RCS-8 3-methoxy isomer]

>  <reportedMetric>
%B/B0

>  <readingUnit>
%

>  <measurement>
79.95

$$$$
>  <compound>
CCCCn1c(C)c(C(=O)c2cccc3ccccc23)c2ccccc21 [JWH-016]

>  <reportedMetric>
%B/B0

>  <readingUnit>
%

>  <measurement>
80.10

$$$$

----------
tested on: Antibody to Immunogen VI; type: binding, sheep; details: Cross-reactants at 100 ng/ml; 1000ng/ml; single level of cross reactants
Measured %B/B0 by item

>  <molecule>
CC(C)(C)Cn1cc(C(=O)c2cccc3ccccc23)c2ccccc21 [JWH-018 N-(2,2-dimethylpropyl) isomer]

>  <%B/B0 / %>
78.92

$$$$
>  <molecule>
CN1CCCCC1Cn1cc(C(=O)c2cccc3ccccc23)c2ccccc21 (centres unmarked)

>  <%B/B0 / %>
81.44

$$$$
>  <molecule>
CCCCCn1cc(C(=O)c2c(C)ccc3ccccc23)c2ccccc21 [JWH 122 2-methylnaphthyl isomer]

>  <%B/B0 / %>
90.59

$$$$
>  <molecule>
CCCCCn1cc(C(=O)c2cccc3ccc(OC)cc23)c2ccccc21 [JWH-081 7-methoxynaphthyl isomer (JWH-164)]

>  <%B/B0 / %>
92.27

$$$$
>  <molecule>
CCCCCn1cc(C(=O)c2cccc3ccccc23)c2cccc(O)c21

>  <%B/B0 / %>
91.71

$$$$
>  <molecule>
CCCCCC(C)n1c(C)c(C(=O)c2cccc3ccccc23)c2ccccc21 (centres unmarked)

>  <%B/B0 / %>
88.22

$$$$
>  <molecule>
O=C(c1cccc2ccccc12)c1c[nH]c2ccccc12

>  <%B/B0 / %>
87.49

$$$$
>  <molecule>
CCCCCn1cc(C(=O)Cc2ccc(Cl)cc2)c2ccccc21 [JWH-206 (JWH-203 4-chloro isomer)]

>  <%B/B0 / %>
78.35

$$$$
>  <molecule>
O=C(c1cccc2ccccc12)c1cn(CCCC(O)CF)c2ccccc12 (centres unmarked) [AM-2201 N-(4-hydroxypentyl) metabolite]

>  <%B/B0 / %>
77.68

$$$$
>  <molecule>
CCCCCn1cc(C(=O)c2ccccc2OC)c2ccccc21 [RCS-4 2-methoxy isomer]

>  <%B/B0 / %>
81.06

$$$$
>  <molecule>
CCCCCCn1cc(C(=O)c2cccc3ccccc23)c2ccccc21

>  <%B/B0 / %>
78.02

$$$$

----------
Tested on: Antibody to Immunogen VI
Type: binding, sheep
Conditions: Cross-reactants at 100 ng/ml; 1000ng/ml; single level of cross reactants
Protocol: The wells of an enhanced binding 96 well polystyrene microtiter plate were coated with IgG fraction of antiserum raised to Immunogen VI, diluted in 10mM Tris, pH8.5 (125µl/well). The appropriate antibody coating dilution was determined using standard ELISA checkerboard techniques. […] The appropriate dilution of conjugate was also determined using standard ELISA checkerboard techniques. […] The absorbance was then measured at 450nm using a microtiter plate reader. […]

>  <compound>
CCCCCCn1cc(C(=O)c2cccc3ccccc23)c2cc(O)ccc21

>  <readingUnit>
%

>  <%B/B0>
89.29

$$$$
>  <compound>
O=C(c1cccc2ccccc12)c1cn(CCN2CCOCC2)c2cccc(O)c12 [JWH-200 4-hydroxyindole metabolite]

>  <readingUnit>
%

>  <%B/B0>
90.44

$$$$
>  <compound>
CCCCCn1cc(C(=O)Cc2ccccc2OC)c2cc(O)ccc21 [JWH 250 5-hydroxyindole metabolite]

>  <readingUnit>
%

>  <%B/B0>
91.28

$$$$
>  <compound>
COc1ccc(CC(=O)c2cn(CCC3CCCCC3)c3ccccc23)cc1 [RCS-8 4-methoxy isomer]

>  <readingUnit>
%

>  <%B/B0>
89.48

$$$$
